Entry source: patent US20250326744A1

- Test system: S-3769 strain
- Measurement Description: Combinational effect with antibacterial agent against Pseudomonas aeruginosa (Test Examples 2 and 4): S-3769 strain with AMK or GM at 1/4 MIC, EC99
- Type: cell-based
- Experimental Parameters: Table 52, Test Example 2; combined with GM at 1/4 MIC; 16 to 20 hours culture, OD595
Metric Name: EC99, S-3769 strain, GM

{"Molecule": "CCOc1cccc(F)c1CN1CCN(C(=O)[C@H](N)C2CCN(CCC3CCCc4ccccc43)CC2)CC1 (stereo partly shown)", "Metric Name": "EC99, S-3769 strain, GM", "Result": "B (25 μM<EC99≤100 μM)"}
{"Molecule": "CCOc1cccc(F)c1CN1CCN(C(=O)CN2CCC(CCc3ccccc3)(CNCCN)CC2)CC1", "Metric Name": "EC99, S-3769 strain, GM", "Result": "B (25 μM<EC99≤100 μM)"}

----------
- System: S-3769 strain
- Measurement Description: Combinational effect with antibacterial agent against Pseudomonas aeruginosa (Test Examples 2 and 4): S-3769 strain with AMK or GM at 1/4 MIC, EC99
- Type: cell-based
- Experimental Parameters: Table 52, Test Example 2; combined with GM at 1/4 MIC; 16 to 20 hours culture, OD595
- Protocol: The combinational effect of the test compound with the antibacterial agent against Pseudomonas aeruginosa was evaluated. The […] was used for evaluating the inhibitory ability against MexXY-OprM. AMK or GM was used as the antibacterial agent used in combination. […] The combinational effect of the test compound with the antibacterial agent against Pseudomonas aeruginosa was evaluated in the same manner as in Test Example 2.
Metric Name: EC99, S-3769 strain, GM

{"Compound String": "CCOc1cccc(F)c1CN1CCN(C(=O)[C@H](N)C2CCN(CCc3cc(Cl)ccc3-c3cccc(P(C)(C)=O)c3)CC2)CC1", "Metric Name": "EC99, S-3769 strain, GM", "Result": "B (25 μM<EC99≤100 μM)"}
{"Compound String": "CCOc1ccc(O)c(F)c1CN1CCN(C(=O)[C@H](N)C2CCN(CCc3ccccc3)CC2)CC1", "Metric Name": "EC99, S-3769 strain, GM", "Result": "B (25 μM<EC99≤100 μM)"}

----------
- Tested on: mexY (EC) strain
- Measurement Description: Efflux ability inhibition effect on drug efflux pump MexY (Test Examples 1 and 3): proliferation (OD595) of mexY (EC) strain with EM or LVFX at 1/4 MIC, EC75
- Format: cell-based, Escherichia coli
- Experimental Parameters: Table 51, Test Example 1; combined with LVFX at 1/4 MIC; 16 to 20 hours culture, OD595
Metric Name: EC75, mexY (EC) strain, LVFX

{"Compound String": "COc1ccccc1CN1CCN(C(=O)CN2CCC(NCc3ccccc3)CC2)CC1", "Measured On": "mexY (EC) strain", "Result": "B (25 μM<EC75≤100 μM)"}
{"Compound String": "COc1ccccc1CN1CCN(C(=O)[C@@H](N)C2CCN(CCc3ccccc3)CC2)CC1", "Measured On": "mexY (EC) strain", "Result": "A (12.5 μM<EC75≤25 μM)"}
{"Compound String": "COc1ccccc1CN1CCN(C(=O)CN2CCN(CCc3ccc(F)cc3)CC2)CC1", "Measured On": "mexY (EC) strain", "Result": "B (25 μM<EC75≤100 μM)"}
{"Compound String": "CCOc1cccc(F)c1CN1CCN(C(=O)[C@H](N)C2CCN(CCC3(C)CCCCC3)CC2)CC1", "Measured On": "mexY (EC) strain", "Result": "A (12.5 μM<EC75≤25 μM)"}
{"Compound String": "COc1ccccc1CN1CCN(C(=O)CN2CCC(CCc3ccccc3)(NC(N)=O)CC2)CC1", "Measured On": "mexY (EC) strain", "Result": "B (25 μM<EC75≤100 μM)"}
{"Compound String": "COc1ccccc1CN1CCN(C(=O)CN2CCC(NC(=O)c3ccc(O)c(O)c3Cl)CC2)CC1", "Measured On": "mexY (EC) strain", "Result": "A (12.5 μM<EC75≤25 μM)"}
{"Compound String": "CCOc1cccc(F)c1CN1CCN(C(=O)[C@H](N)C2CCN(CCn3c(=O)ccc4ncc(F)cc43)CC2)CC1", "Measured On": "mexY (EC) strain", "Result": "B (25 μM<EC75≤100 μM)"}
{"Compound String": "COc1ccccc1CN1CCN(C(=O)CN2CCC(C#Cc3ccccc3)CC2)CC1", "Measured On": "mexY (EC) strain", "Result": "B (25 μM<EC75≤100 μM)"}

----------
- Tested on: mexB (PA) strain
- Measurement Description: Combinational effect with antibacterial agent against Pseudomonas aeruginosa (Test Examples 2 and 4): mexB (PA) strain with LVFX, TC or AZT at 1/4 MIC, EC99
- Type: cell-based
- Experimental Parameters: mexB (PA) strain; combined with AZT at 1/4 MIC; Test Example 4
Metric Name: EC99, combinational effect with AZT, mexB (PA)

{"Compound": "CCOc1cccc(F)c1CN1CCN(C(=O)[C@H](N)C2CCN(CCc3cc(Cl)ccc3-c3ccoc3)CC2)CC1 [Example 547]", "Result": "B (25 μM<EC99≤100 μM)"}
{"Compound": "N[C@@H](C(=O)N1CCN(C[C@@H]2CCCN2)CC1)C1CCN(CCc2cc(Cl)ccc2-c2ccccc2)CC1 [Example 538]", "Result": "C (100 μM<EC99)"}
{"Compound": "CSc1ccccc1CN1CCN(C(=O)[C@H](N)C2CCN(CCc3cc(Cl)ccc3-c3cccc(O)c3Cl)CC2)CC1.Cl [Example 613]", "Result": "S (EC99≤12.5 μM)"}
{"Compound": "CCOc1cccc(F)c1CN1CCN(C(=O)[C@H](N)C2CCN(CCc3cc(O)ccc3-c3ccccc3)CC2)CC1 [Example 596]", "Result": "C (100 μM<EC99)"}
{"Compound": "CCSc1cc(F)ccc1CN1CCN(C(=O)[C@H](N)C2CCN(CCc3cc(Cl)ccc3-c3cccc(O)c3Cl)CC2)CC1 [Example 616]", "Result": "S (EC99≤12.5 μM)"}
{"Compound": "CSc1ccccc1CN1CCN(C(=O)[C@H](N)C2CCN(CCc3cc(Cl)ccc3C3=CCNCC3)CC2)CC1 [Example 602]", "Result": "B (25 μM<EC99≤100 μM)"}
{"Compound": "COc1cccc(O)c1CN1CCN(C(=O)[C@H](N)C2CCN(CCc3cc(Cl)ccc3-c3ccccc3)CC2)CC1 [Example 575]", "Result": "S (EC99≤12.5 μM)"}
{"Compound": "CCSc1cc(F)ccc1CN1CCN(C(=O)[C@H](N)C2CCN(CCc3cc(Cl)ccc3-c3cc(N)cc(F)c3)CC2)CC1 [Example 606]", "Result": "S (EC99≤12.5 μM)"}
{"Compound": "CCOc1cccc(F)c1CN1CCN(C(=O)[C@H](N)C2CC[N+](C)(CCc3cc(Cl)ccc3-c3ccccc3)CC2)CC1 (stereo partly shown) [Example 568]", "Result": "C (100 μM<EC99)"}
{"Compound": "CCSc1cc(F)ccc1CN1CCN(C(=O)[C@H](N)C2CCN(CCc3ncccc3-c3ccccc3)CC2)CC1 [Example 542]", "Result": "B (25 μM<EC99≤100 μM)"}
{"Compound": "COc1cccc(NC(=O)C(C)(C)C)c1CN1CCN(C(=O)[C@H](N)C2CCN(CCc3cc(Cl)ccc3-c3ccccc3)CC2)CC1 [Example 527]", "Result": "C (100 μM<EC99)"}
{"Compound": "CSc1cccc(O)c1CN1CCN(C(=O)[C@H](N)C2CCN(CCc3cc(Cl)ccc3-c3ccccc3)CC2)CC1 [Example 590]", "Result": "S (EC99≤12.5 μM)"}

----------
- Test system: mexB (PA) strain
- Measurement Description: Combinational effect with antibacterial agent against Pseudomonas aeruginosa (Test Examples 2 and 4): mexB (PA) strain with LVFX, TC or AZT at 1/4 MIC, EC99
- Type: cell-based
- Experimental Parameters: mexB (PA) strain; combined with AZT at 1/4 MIC; Test Example 4
- Method: The combinational effect of the test compound with the antibacterial agent against Pseudomonas aeruginosa was evaluated. For the evaluation of the inhibitory ability against MexAB-OprM, a mutant strain of Pseudomonas aeruginosa in which MexAB-OprM was expressed as a main drug efflux pump (hereinafter, referred to as a “mexB (PA) strain”) was used. LVFX, TC, or AZT was used as the antibacterial agent used in combination. […]
Metric Name: EC99, combinational effect with AZT, mexB (PA)

{"Compound String": "COc1cccc(SC)c1CN1CCN(C(=O)[C@H](N)C2CCN(CCc3cc(Cl)ccc3-c3ccccc3)CC2)CC1", "Measured On": "mexB (PA) strain", "Result": "B (25 μM<EC99≤100 μM)"}
{"Compound String": "CCOc1cccc(F)c1CN1CCN(C(=O)[C@H](N)C2CCN(CCc3cc(Cl)ccc3-c3cc(O)ccc3Cl)CC2)CC1", "Measured On": "mexB (PA) strain", "Result": "S (EC99≤12.5 μM)"}
{"Compound String": "CCSc1cc(F)ccc1CN1CCN(C(=O)[C@H](N)C2CCN(CCc3cc(Cl)ccc3-c3ccccc3Cl)CC2)CC1", "Measured On": "mexB (PA) strain", "Result": "S (EC99≤12.5 μM)"}
{"Compound String": "CCOc1ccncc1CN1CCN(C(=O)[C@H](N)C2CCN(CCc3cc(Cl)ccc3-c3ccccc3)CC2)CC1", "Measured On": "mexB (PA) strain", "Result": "B (25 μM<EC99≤100 μM)"}
